assay: Human HepG2 cell viability assay in 384 well format; type: toxicity, cell-based; set-up: dose 125 nL, time 70.5 hour; concentration not given beside the values; conditions: HepG2 cells, read-out: Inhibition
Answer each item with its documented cytotoxicity at 70.5 h.
Answers are plain numbers, in %.

[[record]]
molecule = "CCC(O)CNC(=O)C1(N(C)Cc2ccccc2)Cc2ccccc2C1 (stereo unspecified)"
quantitative_readout = -3.52

[[record]]
molecule = "CCc1n[nH]c(C2CN(C(=O)c3cnc(C)s3)CCO2)n1 (stereo unspecified)"
quantitative_readout = 23.1

[[record]]
molecule = "CC(=O)N1[C@H](Cn2cncn2)C[C@@H]2CN(c3ccc(C)nn3)CC[C@@H]21"
quantitative_readout = -6.42

[[record]]
molecule = "CC(=O)N1Cc2ccccc2CC1C(=O)Nc1ccc(N(C)C)cn1 (stereo unspecified)"
quantitative_readout = -24.9

[[record]]
molecule = "CCCc1nc(C(C)(C)NC(=O)C2CC(=O)N(CCOC)C2)no1 (stereo unspecified)"
quantitative_readout = -10.7

[[record]]
molecule = "Cc1ccc(N2CCCN(C(=O)CCc3ccsc3)CC2)nn1"
quantitative_readout = -6.07

[[record]]
molecule = "COc1cc(I)c(Cl)cc1C(=O)N(C)CC(=O)NC(C)(C)C"
quantitative_readout = -23.4

[[record]]
molecule = "Cn1cc(CN2CCC3(CCC(C(=O)NCC4CC4)C3)CC2)cn1 (stereo unspecified)"
quantitative_readout = -9.54

[[record]]
molecule = "Cc1ccc(-c2nc(CN(Cc3cccs3)C3CCS(=O)(=O)C3)cs2)o1 (stereo unspecified)"
quantitative_readout = 13.7

[[record]]
molecule = "CNC(=O)c1nnn(-c2ccccc2F)c1-c1ccccn1"
quantitative_readout = 0.41


Next molecule, please.
Record request: cytotoxicity at 70.5 h value, item NC(=O)c1cnc2n1CCN(C(=O)c1ccc(Cn3cccc3)cc1)C2
5.38

----------
What cytotoxicity at 70.5 h was measured for each of the following?
test: Human HepG2 cell viability assay in 384 well format; type: toxicity, cell-based; parameters: dose 125 nL, time 70.5 hour; concentration not given beside the values; details: HepG2 cells, read-out: Inhibition
One number for each entry, in %.

[[record]]
molecule = "CC(NC(=O)COCC(F)(F)F)c1nnc2n1CCCCC2 (stereo not drawn)"
quantitative_readout = -16.3


Quick request: cytotoxicity at 70.5 h for each listed item, please.
1. CC1CCN(C(=O)CN2CCC(c3n[nH]c(C4CC4)n3)CC2)CC1
2. CCc1[nH]c2c(CNC(=O)C3CCN(C)C3)cc(C)cc2c1C (stereo not drawn)
3. CC(C)(C)OC(=O)N[C@H]1CCN(C(=O)c2cc(Cl)c[nH]2)C1
4. c1ccc(CNc2ccccc2N2CCCC2)nc1
5. CCN(C(=O)CN1CCC(c2n[nH]c(C3CC3)n2)CC1)C1CC1
6. O=C(C1CCOC1)N1CCC2(CCN(Cc3nccs3)CC2)CC1 (stereo not drawn)

1. -1.53
2. -8.68
3. -4.47
4. -18.2
5. -5.09
6. -15.1

Below are 6 molecules. Give each one its cytotoxicity at 70.5 h.
1. COc1ccc2c(ccn2CCN)c1
2. CCc1ccccc1-c1cc(C)nc(N)n1
3. CN(CCCc1cnn(C)c1)C(=O)Nc1cccc2[nH]ncc12
4. NC(=O)Cn1c(CO)cnc1SCC(=O)NCc1ccccc1
5. COc1cccc(-c2cc(NCc3cscn3)n(C)n2)c1
6. CC(Nc1ccc(CN2CCCC2=O)cc1)C(=O)N(C)CCC#N (stereo not drawn)

[5.97, -7.75, -15.7, 13.6, -7.72, 0.0537]

Quick batch: cytotoxicity at 70.5 h for everything below.
1. CCCc1cc(C(=O)N[C@H](C)[C@@H](O)c2ccc(O)cc2)n(C)n1
2. c1cncc(CN2CCC(c3ccc4c(c3)OCO4)CC2)c1
3. CCSc1ccc(C(C)NC(=O)CCS(C)(=O)=O)cc1 (stereo not drawn)
4. COCCN1CCO[C@@H]2CN(Cc3ccc(C)s3)C[C@@H]2C1
5. Brc1cnc(NCc2ccccc2N2CCOCC2)nc1
6. O=C(c1cccs1)N1CCc2ncc(Cn3cncn3)n2CC1

[-11.6, 19.4, -9.87, -2.59, -1.21, -13.5]

----------
assay: Human HepG2 cell viability assay in 384 well format; assay type: toxicity, cell-based; design: dose 125 nL, time 70.5 hour; concentration not given beside the values; details: HepG2 cells, read-out: Inhibition
Measured Property: cytotoxicity at 70.5 h (%)
Give bare numbers, in %.

Look over these answered cases.
[[record]]
compound = "CCn1cnnc1CNC(=O)c1cc(Cl)ccc1OC"
measured_property = "cytotoxicity at 70.5 h"
quantitative_readout = -4.87

[[record]]
compound = "CNS(=O)(=O)CC(=O)N1CCCc2cc(Br)ccc21"
measured_property = "cytotoxicity at 70.5 h"
quantitative_readout = -88.8

[[record]]
compound = "CCOC(C)c1noc(CN2CCN(Cc3ccno3)CC2)n1 (stereo not given)"
measured_property = "cytotoxicity at 70.5 h"
quantitative_readout = -3.49

[[record]]
compound = "CCc1nc(CN(C)C2CCN(CC(F)(F)F)C2)no1 (stereo not given)"
measured_property = "cytotoxicity at 70.5 h"
quantitative_readout = -4.19


# batch: return cytotoxicity at 70.5 h for each of the 8 compounds below
1. CSCCC(C)(O)CNC(=O)Nc1ccccc1C (stereo not given)
2. CCn1ncc2c1CCCC2NCc1ccc2c(c1)CCO2 (stereo not given)
3. Cc1nc(CN2CCCC3(CCN(c4cnn(C)c4)C3=O)C2)cs1 (stereo not given)
4. CCOc1ccccc1CCNC(=O)NCC(O)c1ccsc1 (stereo not given)
5. O=C(NCCOc1ccc(F)c(F)c1)NCc1ccncc1
6. O=C(c1ccncc1)N1CCc2c(COCC3CC3)cncc2C1
7. N#Cc1cccc(N2CCOC3(CNCCOC3)C2)n1 (stereo not given)
8. CC(C)COc1ccccc1CN(C)C(=O)c1cc(=O)[nH]c(=O)[nH]1

-6.41
-0.486
-11.6
-0.583
-11.2
0.493
15.5
-8.79

Give measured cytotoxicity at 70.5 h for every item shown.
1. CNC(=O)C(C)S(=O)(=O)Cc1csc(-c2cccs2)n1 (stereo not given)
2. CC(=O)N1CCN(c2ccnc3c(F)cc(Br)cc23)CC1
3. COc1ccccc1CC(C)CC(=O)NS(=O)(=O)C(C)C (stereo not given)
4. CN(C)CCn1ccnc1C1CCN(c2cc(N)nc(N)n2)CC1
5. CC(C)N(C)Cc1cnc2n1CCN(C(=O)NC1CCCC1)C2

1: -7.57; 2: -1.55; 3: 9.2; 4: -6.61; 5: -9.47

# per-item lookup of cytotoxicity at 70.5 h; items listed below
1. CC(C)C(=O)NCc1cccc(N2CCCCC2=O)c1
2. Cc1c(C(=O)N2CCC(C(O)c3ccc(Cl)cc3)CC2)cnn1C (stereo not given)
3. CS(=O)(=O)CCNCc1ccc(OCc2ccncc2)cc1
4. Cc1occc1C(=O)N1CCC2(CCCN(c3ncc(F)cn3)C2)C1 (stereo not given)
5. COc1ccc(/C=C/CN2CCC3(CC2)CN(C)C(=O)O3)cc1
6. CCn1cc(-c2n[nH]c(=O)n2-c2ccc(OC)c(OC)c2)c(C)n1
7. COCCc1noc(-c2ccc(-c3cc[nH]n3)nc2)n1
8. O=C(c1ccc[nH]1)N1CCc2nnc(Cn3cccn3)n2CC1

-12.2
-3.74
19.2
-1.51
-6.12
-4.02
-1.45
-2.61

----------
assay: Human HepG2 cell viability assay in 384 well format; assay type: toxicity, cell-based; set-up: dose 125 nL, time 70.5 hour; concentration not given beside the values; details: HepG2 cells, read-out: Inhibition
Could you please report measured cytotoxicity at 70.5 h for the items listed next?
Numbers only, in %.

Illustrative cases are given below, each with its answer.
[[record]]
compound = "N#CCCN(Cc1ccco1)C(=O)C1CCCc2ccccc21 (configuration not stated)"
measured_property = "cytotoxicity at 70.5 h"
quantitative_readout = -6.61

[[record]]
compound = "Cc1ccnc(C2CN(c3ncccn3)C2)n1"
measured_property = "cytotoxicity at 70.5 h"
quantitative_readout = -12.1

[[record]]
compound = "CN1CCCc2sc(C(=O)NCc3cccnc3)nc21"
measured_property = "cytotoxicity at 70.5 h"
quantitative_readout = -10.4

[[record]]
compound = "Cc1nc2cc(-c3nccn3C)nn2c(N2CCCC2)c1C"
measured_property = "cytotoxicity at 70.5 h"
quantitative_readout = -0.486

[[record]]
compound = "COc1cc(C2CC(=O)Oc3cc(C)[nH]c(=O)c32)ccc1O (configuration not stated)"
measured_property = "cytotoxicity at 70.5 h"
quantitative_readout = -18.3

[[record]]
compound = "Cc1cccc2cc(C(=O)N3CCN(S(=O)(=O)N(C)C)CC3)n(C)c12"
measured_property = "cytotoxicity at 70.5 h"
quantitative_readout = 1.01


Report cytotoxicity at 70.5 h for every entry below.
1. CCc1c(NCc2ccc(F)cc2)cnn1CC(C)C
2. COc1ccccc1N1CCC(CNCc2cccc(C#N)c2)C1 (configuration not stated)
3. Cc1ccc(C(N)c2cccc(S(C)(=O)=O)c2)cc1 (configuration not stated)
4. COCC(=O)N1CCc2c(nnn2C)C1COCCN1CCCC1 (configuration not stated)
5. CN1CCOCC2(CCCN(C(=O)c3cnccn3)C2)C1 (configuration not stated)
6. Cc1ncc(C(=O)N2C[C@H]3CC[C@@H]2CN(S(=O)(=O)N(C)C)C3)c(C)n1

1: -6.17; 2: 35.6; 3: 4.98; 4: -2.45; 5: 0.574; 6: -11.5

# credit: ChEMBL document CHEMBL3507680
